This listing pairs sequences with measured protein stability index.
# System: Saccharomyces cerevisiae
# assay.procedure: protein stability index of tFT-peptide fusion (C-terminal peptide) (PSI (0-1 scale)); higher = more stable (slower turnover)
# condition.context: genetic background: das1 deletion; temperature: 30 C
measured.parameter: protein stability index

RLAKKVARRNAD [RPS24A C-terminal 12 aa] = 0.693
CTFIYFLYFSLF [YBL070C C-terminal 12 aa] = 0.325
DLASFIKKSLSS [TML25 C-terminal 12 aa] = 0.694
EGGDLEYQHVKI [YCR043C C-terminal 12 aa] = 0.691
DILGFKIAPRSA [YGR210C C-terminal 12 aa] = 0.682

###

# Tested on: Saccharomyces cerevisiae
# assay.procedure: protein stability index of tFT-peptide fusion (C-terminal peptide) (PSI (0-1 scale)); higher = more stable (slower turnover)
# condition.context: genetic background: wild type; temperature: 30 C
measured.parameter: protein stability index

LPPPPPPPPLPH = 0.705
TKKKTTNKIIKI = 0.671
LPPRPPRPPPSP = 0.666
HPRPRPPPLPPP = 0.508
FSSGLAEVGVAR = 0.676
RNILMFSNGVDE = 0.681
VVLWTFLLEVSA = 0.134
DLPDLQPACPRF = 0.722
AKSKALGLSPRS = 0.649

###

# Tested on: Saccharomyces cerevisiae
# assay.procedure: protein stability index of tFT-peptide fusion (C-terminal peptide) (PSI (0-1 scale)); higher = more stable (slower turnover)
# condition.context: genetic background: doa10 deletion; temperature: 30 C
Each entry gets no (0) if its protein stability index stays under 0.3, and yes (1) if its protein stability index is 0.3 or above.

YYQVSQKIQRKQ = yes (1)
GVLRMAPGRVMC = no (0)
GVSLRVFVVSVC = no (0)
VRGLGFRWVWGW = yes (1)
CFFICGVFVFLM = no (0)
FVVVVVWVSRGL = no (0)
CHPIPLARLAPT = yes (1)
FLLVGLLIVGCG = no (0)
MRLQLTFSILLF = yes (1)
SSLRATLLIRAV = yes (1)
KFWVVLIEIKYH = no (0)
RRIILAGLFLIS = yes (1)
SRVCVLTGISCA = yes (1)
PRIVLFLRLHSN = no (0)
FCSLLVLLFFGV = yes (1)
CLEHLVYCRLAS = no (0)
FCCLIGYIWYGW = yes (1)
ILFWSLLVSTIR = no (0)
RGFVVFCIPCFV = no (0)
SGRFRAFVLRSM = no (0)
LRVVVGLCMCVL = yes (1)
FLLPWLRPVFFF = no (0)

###

# System: Saccharomyces cerevisiae
# assay.procedure: protein stability index of tFT-peptide fusion (C-terminal peptide) (PSI (0-1 scale)); higher = more stable (slower turnover)
# condition.context: genetic background: das1 deletion; temperature: 30 C
Each entry gets 0 if its protein stability index stays under 0.4, and 1 if its protein stability index is 0.4 or above.

SRLMLPLSPLVC = 0
PVALYPVQAYLT = 1
FKKIKGKIEKKN = 1
IFSTQMVRFSLL = 1
VLRLLARRHAMV = 1
CGQIAFLGIAVK = 0
LYVQSVCFSVPR = 1
RILKLPGHVNDV = 1
TYSVIPSLALLP = 1
HLILWLFFVIVF = 0
VVSLAVVGRFLV = 1
GLLAEPALLLLS = 1
WFLVFLRVGDGP = 0
FSLLTWPFVFLV = 0
HLRWYITGIVWF = 1
LLTGRFRILLVV = 0
VGIFKVCALVLR = 0
CLCYFLFYFLFV = 1
VLRACCDWGFLV = 1
GGMGLWCCVSVG = 1
FLVIILFFLYMR = 0
VLLCGRMVVVEW = 0
FKYRVPLVGVVK = 0
MPQSLKKMVFLA = 1
VFFFNALFCFFC = 1
SLLFPLPRPLLD = 1
LVGWSWRGWFVV = 1
VWSCILPMVYVW = 0
ESCIFLMWLTVL = 0
CLNPCVRWDGHV = 1
FELSVSVFQSVV = 0
YLCFVVSCGVLR = 0
FCIYLCLSTSIT = 0
VTEGMKEVIKQI = 1
QPTGYFKLIIIK = 0
RVWTTVFIIRAT = 1
YGWILQLPCFVI = 0
IACISCLLCVVV = 1
ESFIKFALYIVN = 1
LFNRCCTILVVW = 0
LLRFFPLLLFSF = 0
VIVQSWEIIRLN = 1
IFSGCRIALSVF = 0

###

# Tested on: Saccharomyces cerevisiae
# assay.procedure: protein stability index of tFT-peptide fusion (C-terminal peptide) (PSI (0-1 scale)); higher = more stable (slower turnover)
# condition.context: genetic background: wild type; temperature: 30 C
measured.parameter: protein stability index

PASRIGGALPGG = 0.604
GSPTSAPLSPPP = 0.686
CFLPLFFFRFVE = 0.609
RAVLRFVMVWVL = 0.317

###

# Test system: Saccharomyces cerevisiae
# assay.procedure: protein stability index of tFT-peptide fusion (C-terminal peptide) (PSI (0-1 scale)); higher = more stable (slower turnover)
# condition.context: genetic background: wild type; temperature: 30 C
Each entry gets NOT MET if its protein stability index stays under 0.7, and MET if its protein stability index is 0.7 or above.

FLGPMRVLVSSV = NOT MET
VMVNTAWERRKR = NOT MET
HGGSFSAFWYLL = NOT MET
VYYDERLGDGHS = MET
RKLDRDLTPESF = NOT MET
ALPETKVSRRQS = NOT MET
VIAGSWVAGVSV = NOT MET
AGVVRGGRGVGI = MET
DFVFFLVSVRFR = NOT MET
EFVGSCPLCNTF = NOT MET
PFCLPRPVRGVL = MET
LYTENSDLDRVF = NOT MET
VGAIGYWCPEWR = NOT MET
VVFVFIDLGLCV = NOT MET
SDDGIRLLNQSF = NOT MET
VLPKQVSEALTL = NOT MET
SVCPQALNLPPH = MET
LPLPPLPPGMLS = MET
DSSRANRCISDR = NOT MET
PPPLPPLSPPPS = MET
FALCLPPPSPPA = MET

###

# System: Saccharomyces cerevisiae
# assay.procedure: protein stability index of tFT-peptide fusion (C-terminal peptide) (PSI (0-1 scale)); higher = more stable (slower turnover)
# condition.context: genetic background: wild type; temperature: 30 C
Each entry gets Criterion not met if its protein stability index stays under 0.7, and Criterion met if its protein stability index is 0.7 or above.

LLFFSCGGVSSV = Criterion not met
LWAPFWVSRVTA = Criterion not met
PWFGSSPRLAAC = Criterion met
GGEGPKGDRGRA = Criterion not met
WIKKGKNRLRKT = Criterion not met
RRGVPIKKPRYF = Criterion not met
VRTFAVSCLCVC = Criterion not met
LQNCRVSVLLGW = Criterion not met
ARKIGKVIPKLG = Criterion not met
SISSVFCTGRCH = Criterion met
NLVSCFSSCGSV = Criterion not met
PPPLPLPPPLPP = Criterion not met
AGESPDLSARCG = Criterion not met
REWCSGGPCAAS = Criterion met
PLRVDLTHQQWS = Criterion not met
LRIGTCYCGVAW = Criterion met
ERKQRKREQRDR = Criterion not met

###

# System: Saccharomyces cerevisiae
# assay.procedure: protein stability index of tFT-peptide fusion in wild type (PSI (0-1 scale)); higher = more stable (slower turnover)
# condition.context: genetic background: wild type
measured.parameter: protein stability index

GLYMCSVPCWFR = 0.646
FLVSLPILLFFR = 0.0831
HSLRVLLPLYFR = 0.309
RVTRLDAIYFTI = 0.548
LVVYLACVACIN = 0.0186
RLIQPLIVQFLN = 0.0468
GLYACSVGCWFR = 0.386
CTSCLYKFRTNN = 0.185

###

# Test system: Saccharomyces cerevisiae
# assay.procedure: protein stability index of tFT-peptide fusion (C-terminal peptide) (PSI (0-1 scale)); higher = more stable (slower turnover)
# condition.context: genetic background: das1 deletion; temperature: 30 C
Assign classes using reported protein stability index values and the ranges c1: < 0.3; c2: ≥ 0.3 and < 0.5; c3: ≥ 0.5, please.

VVFVFIDLGLCV = c1
VFFVLAVVGADA = c2
RGFVVFCIPCFV = c1
FSFFLYFFLLLF = c2
YWGFHPCCAFGY = c3
AYVAPRRALMCS = c2
ESCFGMAIFCVT = c2
SLCELRCLLRVG = c3
VDVWRWRGLRVG = c3
SFAVSSDYLFII = c3
GPGTWLFCFVRF = c2
